property_label: IC50

Given the entry O=c1cc(-c2ccc(O)c(O)c2)oc2cc(O)cc(O)c12 [Lut, luteolin] , what IC50 was observed with acetylcholinesterase from Electrophorus electricus (Electrophorus electricus)? 145 µM

// fetch acetylcholinesterase from Electrophorus electricus (Electrophorus electricus) IC50 for C/C=C1/[C@H](O[C@@H]2O[C@H](CO)[C@@H](O)[C@H](O)[C@H]2O)OC=C(C(=O)OC)[C@H]1CC(=O)OCCc1ccc(O)c(O)c1 [Ol, oleuropein] 417 µM

Could you share what IC50 was measured for OCCc1ccc(O)c(O)c1 [Hyty, hydroxytyrosol] , tested on acetylcholinesterase from Electrophorus electricus (Electrophorus electricus)? 328 µM
